# assayed system: T1, human Claudin18.1 (human, UniProt P56856 1-261)
# T1 construct: whole, on cells; also called CLDN18.1; HEK293T-Claudin18.1 (human)
# T1 sequence (P56856 whole entry): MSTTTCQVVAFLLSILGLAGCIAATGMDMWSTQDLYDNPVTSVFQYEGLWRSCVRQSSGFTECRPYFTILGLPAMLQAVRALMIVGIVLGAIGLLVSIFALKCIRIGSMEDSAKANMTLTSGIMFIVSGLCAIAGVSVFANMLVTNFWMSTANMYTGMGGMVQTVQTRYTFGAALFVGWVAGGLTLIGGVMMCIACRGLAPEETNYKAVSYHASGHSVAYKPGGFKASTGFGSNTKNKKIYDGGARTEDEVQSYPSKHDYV
# test name: FACS on HEK293T-Claudin18.1 (human) cells, antibody 50 µg/mL
Please respond with reported Mean APC fluorescence signal value for every item in the list.

binder="1A6G10 (antibody, V domains shown, Murine monoclonal antibody purified from hybridoma supernatant; also called 1A6G11) VH: QVQLKESGGGLVKPGGSLKLSCAASGFTFSSYAMSWVRQTPEKRLEWVAAIHSNGGSTYNSDTMRDRFTISRDHAKNTLYLQMSSLRSEDTALYYCGRQSFGNALDYWGQGTSVTVSS VL: DIQMTQSPSSLTVTAGEKVTLTCKSSQSLLNSGNQKNYLTWYQQKPGQPPKLLIYWASTRESGVPDRFTGSGSGTFFTLTISSVQAEDLAVYFCQNDYVYPFTFGAGTQLELK" data_value=111
binder="23F2F2 (antibody, V domains shown, Murine monoclonal antibody purified from hybridoma supernatant) VH: QVQLKESGGGLVQPGGSMKLSCAASGFTFSDAWMNWVRQSPEKGLEWVAEIRNKADYHATHYVESVTGRFTISRDDSKSSVYLQMNRLRAEDTGIYYCTRNYGSRFDYWGQGTTLTVSS VL: DIVETQSPSSLTVTAGEKVTMSCKSSQSLLNSGNQRNYLTWYQQKPGHPPKLLIYWASTRESGVPDRFTGSGSGTDFTLTVTSVQAEDLAVYYCQNDYFYPLAFGTGTKLELK" data_value=222
binder="25C7A5 (antibody, V domains shown, Murine monoclonal antibody purified from hybridoma supernatant) VH: EVQLQQPGAELVKPGTSVKLSCKASGYTFTNYWLHWVRQRPGQGLEWIGMMHPISGSSNNNERFKSKATLTVDKSSTTAYMQLSRMTSEDSAVYYCARGLLSAMDYWGQGTSVTVSS VL: CIVLTQSPKSMSMSVGERVTLSCKASENVKTYVSWYQQRPEQSPKLLIYEASNRYTGVPDRFTGSGSATVFTLTISSVQTEDLANYFCGQTYSFPPTFGSGTKLEIK" data_value=123
binder="8H11A10 (antibody, V domains shown, Murine monoclonal antibody) VH: QVQLKESGPVLVAPSQSLSITCTVSGFSLTNYGVHWVRQPPGKGLEWLGVIWSGGRTNYNSALMSRLSISKDNSKSQVFLKMNSLQTDDTAMYYCAKRDGIYGDYWGQGTSVTVSS VL: DIVETQSPSSLTVTAGEKVTMSCKSSQSLLNSGNQKNYLTWYQQKPGQSPKLLIYWASTRESGVPDRFTGSGFGTDFTLTISSVQAEDLAVYYCQNDYIYPLTFGAGTKLELK" data_value=175
binder="2D3A11 (antibody, V domains shown, Murine monoclonal antibody purified from hybridoma supernatant) VH: EVQLQQSGPELVKPGASVRMSCKASGYTFTSYVVHWVKQKPGQGLEWIGYINPYNADSKYNERFKGKATLTSDKSSNSAYMELSSLTSEDSAVYYCSRSYYGNSFDVWGAGTTVTVSS VL: DIVMTQSPSSLTVTTGEKVTMSCKSSQSLLNSGNQKNYLTWYQQKPGQSPKLLFFWASTRQSGVPDRFTGSGSGTYFTLTISSVQAEDLAVYYCQNDYYFPFTFGTGTKLEIK" data_value=134

Could I get Mean APC fluorescence signal value for every one of these entries?
1. 32F7A6 (antibody, V domains shown, Murine monoclonal antibody purified from hybridoma supernatant) VH: QIQLVQSGPELRKPGETVKISCKASGYTFTAYTMGWVKQAPGKGLEWMAWINTYSGVPTYAADFKGRFAFSLETSASTAYLLINNLKNEDTATYFCARGVRGNSMDYWGQGTSVTVSS VL: DIVETQSPSSLTVTVGERVTLSCKSSQSLLNSGNQRNYLTWSQQKPGQPPKLLIYWASTRESGVPNRFTGGGSGTYFTLTISSVQVEDLAVYYCQNTYSFPFTFGTGTKLEIK
2. 40G11H2 (antibody, V domains shown, Murine monoclonal antibody) VH: EVQLQQSGAELARPGASVKLSCKASGYTFTSYGIRWVKQRTGQGLEWIGEIYPRGGNTYYDEKFKGKATLTADKSSSTAYMGLRSLTSEDSAVYFCARADYGNSFAYWGQGTLVTVSA VL: DIVMTQSPSSLTVTAREKVTMSCKSSQSLLNSGNQKNYLTWYHQKPGQPPKLLIYWASTRESGVPDRFTGSGSGTDFTLTISSVQAEDLAVYFCQNAYFYPFTFGTGTKLEIK

[411, 160]
